Data provenance is BindingDB's records for doi:10.1021/acs.biochem.6b00412.

- MEASUREMENT_TARGET: Trifunctional purine biosynthetic protein adenosine-3 (Homo sapiens, UniProt P22102)
- Sequence (P22102 whole entry): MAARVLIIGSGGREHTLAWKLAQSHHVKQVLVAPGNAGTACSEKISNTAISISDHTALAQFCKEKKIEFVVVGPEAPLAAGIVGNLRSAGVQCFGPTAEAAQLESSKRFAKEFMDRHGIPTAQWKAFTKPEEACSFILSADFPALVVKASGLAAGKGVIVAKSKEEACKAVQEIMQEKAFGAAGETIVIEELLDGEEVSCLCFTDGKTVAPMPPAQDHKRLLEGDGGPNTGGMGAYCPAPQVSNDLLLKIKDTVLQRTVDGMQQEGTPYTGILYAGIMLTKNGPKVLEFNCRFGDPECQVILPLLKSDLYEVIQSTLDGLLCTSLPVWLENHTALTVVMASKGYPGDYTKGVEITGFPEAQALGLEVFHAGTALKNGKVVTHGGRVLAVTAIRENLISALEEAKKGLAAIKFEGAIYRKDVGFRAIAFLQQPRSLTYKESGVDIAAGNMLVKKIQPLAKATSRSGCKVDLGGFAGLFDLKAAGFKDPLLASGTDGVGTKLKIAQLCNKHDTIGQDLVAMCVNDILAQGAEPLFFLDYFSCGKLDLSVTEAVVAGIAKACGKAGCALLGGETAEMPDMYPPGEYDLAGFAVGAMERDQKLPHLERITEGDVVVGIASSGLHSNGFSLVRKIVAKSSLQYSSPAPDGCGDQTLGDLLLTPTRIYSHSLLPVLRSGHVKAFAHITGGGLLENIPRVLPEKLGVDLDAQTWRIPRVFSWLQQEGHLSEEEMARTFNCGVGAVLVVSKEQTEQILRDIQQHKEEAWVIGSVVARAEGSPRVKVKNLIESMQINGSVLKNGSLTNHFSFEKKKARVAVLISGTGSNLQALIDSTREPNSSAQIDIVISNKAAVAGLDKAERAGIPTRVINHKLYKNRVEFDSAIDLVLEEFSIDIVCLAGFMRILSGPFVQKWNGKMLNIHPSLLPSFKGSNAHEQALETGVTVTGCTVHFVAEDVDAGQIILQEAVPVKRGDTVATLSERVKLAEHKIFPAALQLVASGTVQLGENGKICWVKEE
- EXPERIMENT: GAR Transformylase Inhibition Assay
- COND: pH 7.5
- Experimental: To initiate the assay, 150 μL of 20 nM His-GARFTase or buffer was added, and the plate was shaken for 5 s. […] For each antifolate, triplicate assays were performed at 20 different drug concentrations.
READOUT_LABEL: pKi
Answers are plain numbers, as −log10 of the molar value.

Take a look at these entries with their results.
>>> observed_measurement("Nc1nc2[nH]c(CCCCCCC(=O)N[C@H](CCC(=O)O)C(=O)O)cc2c(=O)[nH]1 [AGF145]")
7.17
>>> observed_measurement("Nc1nc2[nH]c(CCCCc3ccc(C(=O)N[C@@H](CCC(=O)O)C(=O)O)s3)cc2c(=O)[nH]1")
7.66
>>> observed_measurement("Nc1nc2sc(CCCCc3ccc(C(=O)N[C@@H](CCC(=O)O)C(O)O)cc3)cc2c(=O)[nH]1 [AGF50]")
5.97

List reported pKi for each of these molecules:
1. Nc1nc2[nH]c(CCCCCCCC(=O)N[C@@H](CCC(=O)O)C(=O)O)cc2c(=O)[nH]1
2. Nc1nc2[nH]c(CCCCc3ccc(C(=O)N[C@@H](CCC(=O)O)C(O)O)cc3)cc2c(=O)[nH]1 [AGF23]

Marked response:
1: 7.00; 2: 7.77
